- Assay Details: Solid-state Lipid A binding ELISA microplate assay
- Set-up: species or system Escherichia coli
- Setup Conditions: biotinylated derivatives; immobilized E. coli D31m4 Lipid A; Scatchard plot
No end group written: not given here.
For each entry below, report its apparent binding affinity Ka for Lipid A value.
Only the number, expressed in M⁻¹, is required.

# input Given the entry GKWKLFKKAFKKFLKILAC-OH [BP2] , report its measured apparent binding affinity Ka for Lipid A.
# output 1.9e+08

# input Now this one: GRLRKKWKAFKKFLKILAC [BP1]
# output 9e+07

# input Now this one: Ile-Lys-Ile-Ser-Gly-Lys-Trp-Lys-Ala-Gin-Lys-Arg-Phe-Leu-Lys-Met-Ser-Gly-(Cys) (IKISGKWKAQKRFLKMSGC; listed as Homo sapiens) [BPI(85-102), reference compound]
# output 2e+07

# input Now this one: GKWKLFKKAAKKFLKKCS [BP2.1, analogue similar to the formula]
# output 4e+07
